# System: Ipomea hederacea (IPOHE)
# method description: Adjuvant efficacy with fomesafen, glasshouse spray test
# Format: in vivo
# run parameters: fomesafen sodium salt SL, mean over 100 and 200 g/ha and 3 replicates; adjuvant 0.2% v/v (none in No Adjuvant rows); % leaf area killed, 21 days after application; Tests 1-4 separate runs
Doc: threshold 90% (exclusive). Items with Mean % Herbicidal Activity IPOHE beneath it return T; others return F.

Example entries begin here.
[[record]]
compound = "CCCCCCCCCOc1cc(OCCOCCOCCOCCOCCOCCOCCOC)ncn1"
target_under_test = "Ipomea hederacea (IPOHE)"
cat = "F"

[[record]]
compound = "CCCCCCOc1cc(OCCOCCOCCOCCOCCOCCOCCOCCOCCOCCOC)ncn1"
target_under_test = "Ipomea hederacea (IPOHE)"
cat = "F"

[[record]]
compound = "CCCCCCCCCCCCOc1cc(OCCOCCOCCOCCOCCOCCOCCOC)ncn1"
target_under_test = "Ipomea hederacea (IPOHE)"
cat = "T"

[[record]]
compound = "CCCCCCCCCCCCOc1cc(OCCOCCOCCOCCOCCOCCOCCOCCOCCOCCOC)ncn1"
target_under_test = "Ipomea hederacea (IPOHE)"
cat = "F"

[[record]]
compound = "CCCCCCCCCCCCOc1cc(OCC(C)OCC(C)OCC(C)OC)ncn1 (stereo not shown)"
target_under_test = "Ipomea hederacea (IPOHE)"
cat = "F"


API: query returns whether the compound falls strictly under 90% in Mean % Herbicidal Activity IPOHE. Query: CCCCCCCCC=CCCCCCCCCOc1cc(OCCOCCOCCOCCOCCOCCOCCOCCOCCOCCOCCOCCOCCOCCOCCOCCOCCOCCOCCOCCOC)ncn1
F

Next up: CCCCCCCCCOc1cc(OCCOCCOCCOCCOCCOCCOCCOCCOCCOCCOC)ncn1
T
